# TARGET: Recombinant human CYP51A1 (lanosterol-14a-demethylase) (Homo sapiens (Human), UniProt Q16850)
# Sequence (Q16850 whole entry): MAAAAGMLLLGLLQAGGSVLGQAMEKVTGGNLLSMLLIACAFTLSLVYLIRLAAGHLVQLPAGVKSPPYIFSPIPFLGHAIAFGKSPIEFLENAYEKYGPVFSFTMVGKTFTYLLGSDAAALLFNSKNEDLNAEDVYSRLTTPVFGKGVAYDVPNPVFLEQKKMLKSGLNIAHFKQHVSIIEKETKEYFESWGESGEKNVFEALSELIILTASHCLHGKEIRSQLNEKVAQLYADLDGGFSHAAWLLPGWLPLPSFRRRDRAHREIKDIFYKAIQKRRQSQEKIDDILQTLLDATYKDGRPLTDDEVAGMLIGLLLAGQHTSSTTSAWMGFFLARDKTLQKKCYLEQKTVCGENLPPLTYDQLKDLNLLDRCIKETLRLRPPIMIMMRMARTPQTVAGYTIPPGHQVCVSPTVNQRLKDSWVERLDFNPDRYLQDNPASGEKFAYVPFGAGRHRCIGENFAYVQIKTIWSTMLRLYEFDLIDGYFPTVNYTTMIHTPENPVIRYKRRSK
# TEST_DETAILS: Inhibition of CYP51A1, fluorescent substrate BOMCC
# CONDITION_SUMMARY: recombinant human CYP51A1 coexpressed with CYP reductase in bacterial membranes, 8-point concentration-response, read-out: CYP51 IC50
Reported IC50 is given for each of the following molecules.

Example entries and their recorded answers appear below.
>>> df
                                   molecule  measurement_kind    result
0  CC(C)N(C[C@@H](O)c1cccnc1)C(=O)Nc1ccc(Cl)c(Cl)c1              IC50    > 1 µM
1  CCCN(C[C@@H](O)c1cccnc1)C(=O)C1Cc2ccc(Cl)c(Cl)c2C1 (some centres unmarked)              IC50  ≤ 0.1 µM
2  CC(C)(C)OC(=O)NC1CCC(CN(C[C@@H](O)c2cccnc2)C(=O)Cc2ccc(C(F)(F)F)nc2)CC1 (some centres unmarked) [compound 146]              IC50  ≤ 0.1 µM

Reported IC50 for `O=C(Cc1ccc(F)c(Cl)c1)N(CC1COC1)C[C@@H](O)c1cccnc1` was > 1 µM

Reported IC50 for `CC(C)N(C[C@@H](O)c1cccnc1)C(=O)Cc1ccc(Cl)c(Cl)c1` was ≤ 0.1 µM

Reported IC50 for `CCCN(C[C@H](O)c1cccnc1)C(=O)Cc1ccc2ccccc2c1` was ≤ 0.1 µM

Reported IC50 for `CC1(CN(C[C@@H](O)c2cccnc2)C(=O)Cc2ccc(Cl)c(Cl)c2)CC1` was ≤ 0.1 µM

Reported IC50 for `CCCN(C[C@@H](O)c1cccnc1)C(=O)Cc1cnc(C(C)(C)C)nc1` was ≤ 0.1 µM
